Reference source for all entries: PubChem BioAssay (NCI)

# System: MALME-3M melanoma
# procedure.details: NCI tumour cell line growth inhibition, 48 h
Parameter: log10 of TGI. Scope: all listed entries.
measure.name: log10 of TGI (log10 of the value in µM)

>  <compound>
O=C(/C=C/c1ccco1)Nc1ncc(Cc2cccc(C(F)(F)F)c2)s1

>  <log10 of TGI>
1.03

$$$$
>  <compound>
CCOC(=O)C1=C(C)NC(C)=C(C(=O)OCCNC(=O)c2ccc(N=[N+]=[N-])cc2)C1c1ccccc1C(F)(F)F (centres undefined)

>  <log10 of TGI>
1.33

$$$$
>  <compound>
CN1CCN(Cc2ccc(NC(=O)c3cncc(C#Cc4c(N)ncc5c(F)cccc45)c3)cc2C(F)(F)F)CC1

>  <log10 of TGI>
0.09

$$$$
>  <compound>
CCCCCCCCCCCCNC(=O)N[C@H](C(=O)N[C@H]1/C=C/CCNC(=O)/C=C/[C@H](C)NC1=O)C(C)C

>  <log10 of TGI>
0.48

$$$$
>  <compound>
O=C(CN1CCN(CCN2C(=O)c3cccc4cccc(c34)C2=O)CC1)Nc1ccc2ncsc2c1

>  <log10 of TGI>
1.38

$$$$
>  <compound>
Cc1ccc(/C=C(/C#N)n2nnc3ncccc32)cc1

>  <log10 of TGI>
1.41

$$$$
>  <compound>
O=C[C@]12CC=C3OC4OC5(CCCCC5)OC4[C@H]3[C@H]1C(=O)C=CC2=O (some centres undefined)

>  <log10 of TGI>
1.54

$$$$
>  <compound>
COC(=O)CNC(=O)CNC(=O)CSc1nnc(COc2ccc(Cl)cc2)n1-c1ccccc1

>  <log10 of TGI>
1.55

$$$$
>  <compound>
N#Cc1sc2c(c1OC(=O)c1ccc(Cl)cc1)c(=O)n(-c1ccccc1)c(=S)n2-c1ccccc1

>  <log10 of TGI>
1.74

$$$$
>  <compound>
Cc1cc(Cl)ccc1NC(=O)CC1SC(=NC(=O)c2ccccc2Cl)NC1=O (centres undefined)

>  <log10 of TGI>
1.57

$$$$
>  <compound>
CCOC(=O)NC(Nc1ccc(S(=O)(=O)Nc2ccc(OC)nn2)cc1)(C(F)(F)F)C(F)(F)F

>  <log10 of TGI>
1.60

$$$$
>  <compound>
C[C@@H]1CC[C@H]2[C@@H](C)C(OC/C=C/COC3O[C@@H]4O[C@@]5(C)CC[C@H]6[C@H](C)CC[C@@H]([C@H]3C)[C@@]46OO5)O[C@@H]3O[C@@]4(C)CC[C@@H]1[C@]32OO4 (some centres undefined)

>  <log10 of TGI>
1.79

$$$$
>  <compound>
CCCCCCCCCC(=O)NCCc1c[nH]c2ccc(OC)cc12

>  <log10 of TGI>
1.54

$$$$
>  <compound>
COc1ccc(CN2C(=O)/C(=C\C(=O)c3ccc(OCCN4CCCC4)cc3)c3ccccc32)cc1

>  <log10 of TGI>
0.53

$$$$
>  <compound>
CC(C)C(=O)Nc1ccc(-c2nc(-c3cccc(OCCN4CCOCC4)c3)c(-c3ccnc(Br)c3)[nH]2)cc1

>  <log10 of TGI>
0.52

$$$$
>  <compound>
CC(C)(C)CNCCCNc1ccc(Cl)cc1

>  <log10 of TGI>
1.73

$$$$
